test system: six V600E BRAF melanoma cell lines; assay: Screening of recombinant RTK ligands for ability to confer resistance to BRAFi (PLX4720) or MEKi (PD184352) (Table 4); format: cell-based, human; set-up: scale not given here; settings: SK-MEL-5, PD184352 - 1 uM, ligand 1.6 ng/ml
Assign ability of recombinant RTK ligand to confer resistance to each entry below.
Give bare numbers.

Report ability of recombinant RTK ligand to confer resistance for every entry below.
1. flt-3 ligand (FL) (protein, UniProt P49771 27-235, looked up) Fms-related tyrosine kinase 3 …: TQDCSFQHSPISSDFAVKIRELSDYLLQDYPVTVASNLQDEELCGGLWRLVLAQRWMERLKTVAGSKMQGLLERVNTEIHFVTKCAFQPPPSCLRFVQTNISRLLQETSEQLVALKPWITRQNFSRCLELQCQPDSSTLPPPWSPRPLEATAPTAPQPPLLLLLLLPVGLLLLAAAWCLHWQRTRRRTPRPGEQVPPVPSPQDLLLVEH
2. VEGF-C (protein, UniProt P49767 112-227, looked up) Vascular endothelial growth …: AHYNTEILKSIDNEWRKTQCMPREVCIDVGKEFGVATNTFFKPPCVSVYRCGGCCNSEGLQCMNTSTSYLSKTLFEITVPLSQGPKPVTISFANHTSCRCMSKLDVYRQVHSIIRR

Outgoing:
1: 0.97; 2: 0.97
